Target: KRAS G12D (Homo sapiens, UniProt P01116, G12D)
Construct: aa1-188 KRAS WT, HRAS WT, NRAS WT, or KRAS containing the G12D
Sequence (P01116 1-188 isoform P01116-2 G12D): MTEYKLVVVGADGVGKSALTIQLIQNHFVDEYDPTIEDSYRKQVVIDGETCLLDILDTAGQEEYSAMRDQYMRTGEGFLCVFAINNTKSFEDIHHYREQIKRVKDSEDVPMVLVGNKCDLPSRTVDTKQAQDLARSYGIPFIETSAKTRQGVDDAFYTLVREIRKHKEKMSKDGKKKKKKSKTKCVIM
Experiment: HTRF nucleotide exchange assay, KRAS G12D
Conditions: HTRF nucleotide exchange assay (NEA), class symbols
Collected IC50 values appear next to each entry.

# count of solved cases: 2
>>> print(df.to_string())
                                   compound      measured
0  CCc1c(F)ccc2cc(O)cc(-c3c(F)c4nc(OCC5(CN6CCC(F)(F)CC6)CC5)nc(N5CCOCC(C)(O)C5)c4c4cn(C)nc34)c12 (stereo not drawn)       ≤ 10 nM
1  CCc1c(F)ccc2cc(O)cc(-c3cc4nc(OCC5(CN(C)C)CC5)nc(N5CCCOCC5)c4c4cn(C)nc34)c12  10 to 100 nM

Then this compound:
Incoming: Indicate its recorded IC50; the compound in question is CCc1c(F)ccc2cc(Cl)cc(-c3cc4nc(OC[C@@]56CCCN5C[C@H](F)C6)nc(N5CCCn6nc(C(=O)N(C)C)cc6C5)c4c4cn(C)nc34)c12
Outgoing: 10 to 100 nM

----------
Target: KRAS G12D (Homo sapiens, UniProt P01116, G12D)
Construct: aa1-188 KRAS WT, HRAS WT, NRAS WT, or KRAS containing the G12D
Experiment: HTRF nucleotide exchange assay, KRAS G12D
Details: HTRF nucleotide exchange assay (NEA), class symbols
pIC50: −log10 of the molar value.
Collected pIC50 values appear next to each entry.

# count of solved cases: 2
>>> print(df.to_string())
                                 smiles_str  value_kind  measured
0  CCc1c(F)ccc2cc(O)cc(-c3c(F)c4nc(OCC56CCCN5CCC6)nc(N5CCC[C@@](C)(O)C5)c4c4cn(C)nc34)c12       pIC50    ≥ 8.00
1  CCc1c(F)ccc2cc(O)cc(-c3cc4nc(OC[C@@]56CCCN5C[C@H](F)C6)nc(N5CCCn6nc(C(=O)N7CCOCC7)cc6C5)c4c4cn(C)nc34)c12       pIC50    ≥ 8.00

Incoming: Indicate its recorded pIC50; the compound in question is CCc1c(F)ccc2cc(O)cc(-c3cc4nc(OC[C@@]56CCCN5C[C@H](F)C6)nc(N5CCCn6nc(CN(C)C)cc6C5)c4c4cn(C)nc34)c12
Outgoing: ≥ 8.00

----------
Molecular target: KRAS G12D (Homo sapiens, UniProt P01116, G12D)
Construct: aa1-188 KRAS WT, HRAS WT, NRAS WT, or KRAS containing the G12D
Experiment: HTRF nucleotide exchange assay, KRAS G12D
Details: HTRF nucleotide exchange assay (NEA), class symbols
pIC50: −log10 of the molar value.
Collected pIC50 values appear next to each entry.

# count of solved cases: 5
>>> print(df.to_string())
                                   compound      measured
0  CCc1c(F)ccc2cc(O)cc(-c3cc4nc(OCC5(CN6CCCC6)CC5)nc(N5CCCn6nc(C(=O)N(C)C)cc6C5)c4c4cn(C)nc34)c12        ≥ 8.00
1  CCc1c(F)ccc2cc(O)cc(-c3c(C)c4nc(OC[C@@]56CCCN5C[C@H](F)C6)nc(N5CCCn6nc(C(=O)N7CCCC7)cc6C5)c4c4cn(C)nc34)c12        ≥ 8.00
2  CCc1c(F)ccc2cc(O)cc(-c3cc4nc(OC[C@@]56CCCN5C[C@H](F)C6)nc(N5CCC(C)(O)C5)c4c4cn(C)nc34)c12 (stereo partly drawn)  7.00 to 8.00
3  CCc1c(F)ccc2cc(O)cc(-c3c(C)c4nc(OCC5(C)CC(OC)CN5)nc(N5CCOCC(C)(O)C5)c4c4cn(C)nc34)c12 (stereo not drawn)        ≥ 8.00
4  Cc1cc2[nH]ncc2c(-c2c(C)c3nc(OCC45CCCN4CC(F)C5)nc(N4CCOCC(C)(O)C4)c3c3cn(C)nc23)c1Cl (stereo not drawn)  7.00 to 8.00

Incoming: Indicate its recorded pIC50; the compound in question is CCc1c(F)ccc2cc(O)cc(-c3c(F)c4nc(OCC5(CO)CC5)nc(N5CCOCC(C)(O)C5)c4c4cn(C)nc34)c12 (stereo not drawn)
Outgoing: ≥ 8.00

----------
Collected IC50 values appear next to each entry.
Target: KRAS WT (Homo sapiens)
Sequence (P01116 1-188 isoform P01116-2): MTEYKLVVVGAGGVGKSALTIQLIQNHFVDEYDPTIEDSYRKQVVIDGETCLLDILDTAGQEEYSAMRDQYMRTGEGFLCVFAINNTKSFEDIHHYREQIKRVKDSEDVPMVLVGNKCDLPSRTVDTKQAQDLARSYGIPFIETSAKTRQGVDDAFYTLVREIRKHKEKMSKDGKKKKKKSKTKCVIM

# count of solved cases: 5
                                   compound  measured
0  CCc1c(F)ccc2cc(O)cc(-c3c(F)c4nc(OC[C@@]56CCCN5C[C@H](F)C6)nc(N5CCOC[C@@](C)(O)C5)c4c4cn(C)nc34)c12   ≤ 10 nM
1  C#Cc1c(F)ccc2cc(O)cc(-c3cc4nc(OC[C@@]56CCCN5C[C@H](F)C6)nc(N5CCCCC(C)(O)C5)c4c4cn(C)nc34)c12 (stereo partly drawn)   ≤ 10 nM
2  CCc1c(F)ccc2cc(O)cc(-c3c(F)c4nc(OC[C@@]56CCCN5C[C@H](F)C6)nc(N5CCOCC(O)C5)c4c4cn(C)nc34)c12 (stereo partly drawn)   ≤ 10 nM
3  CCc1c(F)ccc2cc(O)cc(-c3c(C)c4nc(OC[C@]5(C)CCCN5)nc(N5CCC[C@@](C)(O)C5)c4c4cn(C)nc34)c12 (mixture of isomers)   ≤ 10 nM
4  CCc1c(F)ccc2cc(O)cc(-c3c(C)c4nc(OC[C@@H]5CCN5C)nc(N5CCOCC(C)(O)C5)c4c4cn(C)nc34)c12 (stereo partly drawn)   ≤ 10 nM

Then this compound:
Incoming: Specify the recorded IC50 for CCc1c(F)ccc2cc(O)cc(-c3cc4nc(OC[C@@]56CCCN5C[C@H](F)C6)nc(N5CC6CNCC6C5)c4c4cn(C)nc34)c12 (stereo partly drawn) , system: KRAS WT (Homo sapiens).
Outgoing: 100 to 10000 nM

----------
Biological target: KRAS G12D (Homo sapiens, UniProt P01116, G12D)
Construct: aa1-188 KRAS WT, HRAS WT, NRAS WT, or KRAS containing the G12D
Assay: HTRF nucleotide exchange assay, KRAS G12D
Settings: HTRF nucleotide exchange assay (NEA), class symbols
Value Kind: IC50

# count of solved cases: 5
                                   compound                           subject_of_test  measured
0  CCc1c(F)ccc2cc(O)cc(-c3c(C)c4nc(OC[C@@]56CCCN5C[C@H](F)C6)nc(N5CC6CCC(C5)N6)c4c4cn(C)nc34)c12  KRAS G12D (Homo sapiens, UniProt P01116, G12D)   ≤ 10 nM
1  CCc1c(F)ccc2cc(O)cc(-c3c(F)c4nc(OCC56CCCN5CCC6)nc(N5CCOCC(C)(O)C5)c4c4cn(C)nc34)c12 (stereo not drawn)  KRAS G12D (Homo sapiens, UniProt P01116, G12D)   ≤ 10 nM
2  CCc1c(F)ccc2cc(O)cc(-c3c(F)c4nc(OCC5(C#N)CCOC5)nc(N5CCOCC(C)(O)C5)c4c4cn(C)nc34)c12 (stereo not drawn)  KRAS G12D (Homo sapiens, UniProt P01116, G12D)   ≤ 10 nM
3  CCc1c(F)ccc2cc(O)cc(-c3c(F)c4nc(OC[C@@]56CCCN5C[C@H](F)C6)nc(N5C[C@H]6COC[C@H]6C5)c4c4cn(C)nc34)c12  KRAS G12D (Homo sapiens, UniProt P01116, G12D)   ≤ 10 nM
4  CN(C)C(=O)c1cc2n(n1)CCCN(c1nc(OC[C@@]34CCCN3C[C@H](F)C4)nc3cc(-c4ccc(F)c5sc(N)c(C#N)c45)c4nn(C)cc4c13)C2  KRAS G12D (Homo sapiens, UniProt P01116, G12D)   ≤ 10 nM

Incoming: Indicate its recorded IC50; the compound in question is CCc1c(F)ccc2cc(O)cc(-c3cc4nc(OC[C@@]56CCCN5C[C@H](F)C6)nc(N5CCOC[C@@](C)(O)C5)c4c4cn(C)nc34)c12
Outgoing: ≤ 10 nM

Incoming: Indicate its recorded IC50; the compound in question is CCc1c(F)ccc2cc(O)cc(-c3c(F)c4nc(OC[C@@]56CCCN5C[C@H](F)C6)nc(N5CCOCC(C)(O)C5)c4c4cn(C)nc34)c12 (stereo partly drawn)
Outgoing: ≤ 10 nM

Incoming: Indicate its recorded IC50; the compound in question is CCc1c(F)ccc2cc(O)cc(-c3c(F)c4nc(OC[C@@]56CCCN5C[C@H](F)C6)nc(N5CCCOCC5)c4c4cn(C)nc34)c12
Outgoing: ≤ 10 nM

Incoming: Indicate its recorded IC50; the compound in question is CCc1c(F)ccc2cc(O)cc(-c3c(F)c4nc(OCC5(C#N)CCOC5)nc(N5CCCn6nc(C(=O)N(C)C)cc6C5)c4c4cn(C)nc34)c12 (stereo not drawn)
Outgoing: ≤ 10 nM

Incoming: Indicate its recorded IC50; the compound in question is CCc1c(F)ccc2cc(O)cc(-c3cc4nc(OC[C@@]56CCCN5C[C@H](F)C6)nc(N5CC6CCC5CN6)c4c4cn(C)nc34)c12 (stereo partly drawn)
Outgoing: ≤ 10 nM

Incoming: Indicate its recorded IC50; the compound in question is CCc1c(F)ccc2cc(O)cc(-c3cc4nc(OC[C@@]56CCCN5C[C@H](F)C6)nc(N5CCCC(C)(OC)C5)c4c4cn(C)nc34)c12 (stereo partly drawn)
Outgoing: 10 to 100 nM

Incoming: Indicate its recorded IC50; the compound in question is C#Cc1c(F)ccc2cc(O)cc(-c3c(C)c4nc(OC[C@@]56CCCN5C[C@H](F)C6)nc(N5CCC[C@@](C)(O)C5)c4c4cn(C)nc34)c12
Outgoing: ≤ 10 nM

These data points were gathered from patent US20260347364A1.
